Here, each record is paired with measured growth data.
system: TK-10 renal; assay: NCI-60 one-dose screen, 48 h (100 = growth as untreated, 0 = no growth, -100 = all killed); conditions: 10 µM unless noted
The panel holds about 83,000 compounds, 20% with a hit somewhere; the sample as a whole holds those more often.
Provide the reading as a plain figure in %.

> print(dat)
                                   molecule  observation.type  data.value
1  COc1ccc(C(=O)/C=C/c2cc3c(cc2Br)OCO3)cc1S(N)(=O)=O            growth        16.8
2  CC1=C(C(=O)OC(C)C)C(c2cccc(O)c2)NC(=S)N1 (centres undefined)            growth         104
3  C=C1CC[C@@H]2[C@]3(C)COC(c4cn[nH]c4-c4cccc(Cl)c4)O[C@@H]3CC[C@@]2(C)[C@@H]1C/C=C1/C(=O)OCC1O (some centres undefined)            growth        3.28

[ask] Fill in the blank: the reported growth of `COc1ccc(/C=N/NC(=O)Cn2nc(Cc3ccc(OC)cc3)c3onc(C)c3c2=O)cc1` is ____.
[reply] 79.4

[ask] What measured growth goes with `CC(=O)Oc1ccccc1C(=O)[Se]C(=NC1CCCCC1)NC1CCCCC1` ?
[reply] -98.8

[ask] Could you share which growth value was measured for `COc1cc(CNC(=O)/C=C/c2ccc3c(c2)OCO3)ccc1OCc1cn(-c2cccc(C(F)(F)F)c2)nn1` ?
[reply] 19.9

[ask] # input molecule: `O=C(O)c1ccc(-c2ccc(/C=N/NC(=O)c3[nH]c4ccc(Br)cc4c3-c3ccccc3)s2)cc1` ; wanted: its growth
[reply] 22.8

[ask] # lookup: growth of `NS(=O)(=O)c1ccc(CCNC(=O)CSc2ccc(-c3ccc(Br)cc3)nn2)cc1`
[reply] 72.2

[ask] Request the reported growth associated with CN(C)CCOc1ccc(C(=O)C2[C@H](c3ccc(Cl)cc3)[C@@H](c3ccccc3)NC23C(=O)Nc2ccccc23)cc1 (some centres undefined)
[reply] 117
